Experiment notes: TIMS collisional cross section (CCS, N2) of the lipid ion; higher = larger ion cross section
Experimental setup: sample type: plasma; ionization mode: positive; one isomer drawn
Recorded endpoint: TIMS collisional cross section (Å²)

Previously resolved entries follow.
{"Compound": "CC/C=C\\C/C=C\\C/C=C\\CCCCCCCC(=O)OC[C@@H](COC(=O)CCCCCCC/C=C\\CCCCCCCC)OC(=O)CCCCCCC/C=C\\C/C=C\\CCCCC [TG 18:1_18:2_18:3] (ion (formula + adduct): [C57H98O6+NH4] 1+)", "TIMS collisional cross section [Å²]": 319.9}
{"Compound": "CCCCC/C=C\\C/C=C\\CCCCCCCC(=O)OC[C@H](COC(=O)CCCCCCCCCCC/C=C\\CCCCCCCC)OC(=O)CCCCCCCCC/C=C\\CCCCCCCC [TG 18:2_20:1_22:1] (ion (formula + adduct): [C63H114O6+NH4] 1+)", "TIMS collisional cross section [Å²]": 340.8}
{"Compound": "CCCC/C=C\\CCCCCCCC(=O)OC[C@H](COC(=O)CCCCCCC/C=C\\C/C=C\\CCCCC)OC(=O)CCCCCCC/C=C\\CCCCCC [TG 14:1_16:1_18:2] (ion (formula + adduct): [C51H90O6+NH4] 1+)", "TIMS collisional cross section [Å²]": 304.5}

1. CCCCC/C=C\C/C=C\CCCCCCCC(=O)OC[C@@H](COC(=O)CCCCCCC/C=C\CCCCCCCC)OC(=O)CCCCCCC/C=C\CCCCCCCC [TG 18:1_18:1_18:2] (ion (formula + adduct): [C57H102O6+NH4] 1+)
2. CCCCC/C=C\C/C=C\CCCCCCCC(=O)O[C@H](CO)COP(=O)(O)OCCN [LPE 18:2] (ion (formula + adduct): [C23H44NO7P+H] 1+)
Lower TIMS collisional cross section: 1 or 2 ? Answer by quoting the chosen item's label.
2
